- Tested on: Trypanosoma cruzi
- ASSAY NOTES: Trypanosoma cruzi phosphomannomutase and mannose-1-phosphate guanylyltransferase assay
- Format: functional
- Parameters: scale not given: direction of the effect not stated beside the values
- EXPERIMENTAL PARAMETERS: 10 µM
Percent Effect listing for selected compounds.
Entry format: amount then unit.

Examples from the recorded data:
| COMPOUND | Percent Effect |
| --- | --- |
| CC(C)c1ncc2c(n1)CN(Cc1nc(Cc3ccccc3)no1)CC2 | 2.69% |
| Cc1cccc(-c2ccc(C(=O)NCC3CCOC3)c(=O)[nH]2)c1 (configuration not stated) | -0.472% |
| COCCC(=O)N1CCN(CCN(C)C)c2ncccc2C1 | -0.492% |
| Cc1ccc(C2COCCN2C(=O)c2ccc(CN(C)C)cc2)o1 (configuration not stated) | -1.85% |
| CC(C)c1nn(C)c(N(C)C)c1CNCCC(=O)NC1CCCC1 | 10.4% |

Supply recorded Percent Effect for CC(C)c1nc(C2CCCN(C(=O)CCCn3cncn3)C2)no1 (configuration not stated) here. 2.36%

Supply recorded Percent Effect for "CN1CCN(C[C@@H]2OC[C@H]3CN(Cc4cccc(F)c4)CC[C@H]32)CC1" here. 2.9%

Supply recorded Percent Effect for Cc1nc(CN(C)C2CCN(CC(=O)NC3CCOCC3)C2)no1 (configuration not stated) here. -0.836%

Supply recorded Percent Effect for "CCN1CCN(C(=O)CCc2c(C)noc2Cl)CC1" here. -9.24%

Supply recorded Percent Effect for "NC(=O)C1CCN(c2nc3nccc(-c4ccccn4)c3c(=O)[nH]2)CC1" here. 0.0974%

Supply recorded Percent Effect for "Cc1nn(C)c(N(C)C)c1CNCc1cccc(CN(C)C(C)C)c1" here. 3.03%

Supply recorded Percent Effect for "CCc1noc(CNc2ccc(F)cc2OCC2CC2)n1" here. -1.54%

----------
- Organism: Homo sapiens
- ASSAY NOTES: To identify inhibition of the IFN signalling (Jak-Stat) pathway via expression of an eGFP reporter gene under the control of an IFN-stimulated response element (ISRE) containing MxA promoter.
- Format: functional
- Design: scale not given: direction of the effect not stated beside the values
- EXPERIMENTAL PARAMETERS: 30 µM
Percent Effect listing for selected compounds.
Output spec: scalar in %, unitless text.

Supply recorded Percent Effect for "COc1ccc(CN2C[C@@H]3CCCO[C@@H]3[C@H](NS(C)(=O)=O)C2)cc1" here. -24.2

Supply recorded Percent Effect for "Cc1nc2c(c(N3CC=CC3)n1)CCN(Cc1ccoc1)CC2" here. -16.9

Supply recorded Percent Effect for "COc1ccc(-c2csc(N)c2C#N)cc1OC" here. 12.1

Supply recorded Percent Effect for O=C1NCCCCC1Sc1nnc(C2CC2)n1C1CC1 (configuration not stated) here. 23.5

Supply recorded Percent Effect for CC(=O)N1CCCCC1c1cc(C(=O)N2CCOCC2)[nH]n1 (configuration not stated) here. 2.98

Supply recorded Percent Effect for COc1ccccc1CC(=O)N1CCCC(n2nc(C)cc2C)C1 (configuration not stated) here. 2.12

Supply recorded Percent Effect for Cc1cc(-c2nnc(SCC(=O)O)n2C(C)c2ccccc2)nn1C (configuration not stated) here. 7.01

----------
Percent Effect listing for selected molecules.
- Tested on: Trypanosoma cruzi
- ASSAY NOTES: Trypanosoma cruzi phosphomannomutase and mannose-1-phosphate guanylyltransferase assay
- Format: functional
- Parameters: scale not given: direction of the effect not stated beside the values
- EXPERIMENTAL PARAMETERS: 10 µM
Output spec: scalar in %, unitless text.

| MOLECULE | TGT | Percent Effect / % |
| --- | --- | --- |
| CCn1nc(C)c(CCn2ccnc2-c2cc3n(n2)CCCNC3)c1C | Trypanosoma cruzi | -3.02 |

Lab note: Trypanosoma cruzi assay, enter Percent Effect for "CCn1ccnc1-c1nc2cc(S(=O)(=O)N3CCCC3)ccc2n1C" here 4.31

Lab note: Trypanosoma cruzi assay, enter Percent Effect for CC(NC(=O)NCCCOC1CCCCC1)c1nncn1C (centres undefined) here 4.18

Lab note: Trypanosoma cruzi assay, enter Percent Effect for "Cc1cccc(C(=O)NCc2ccnc(N(C)C)c2)n1" here -3.04

Lab note: Trypanosoma cruzi assay, enter Percent Effect for CN1CC(=O)N(c2cnn(C)c2)CC12CCN(Cc1nccn1C)C2 (centres undefined) here -4.17

Lab note: Trypanosoma cruzi assay, enter Percent Effect for "O=C(NC1CCN(c2snc3ccccc23)CC1)C1CCC1" here -1.74

----------
- TGT: Chromo domain-containing protein 1 (Saccharomyces cerevisiae (strain ATCC 204508 / S288c) (Baker's yeast)) (UniProt P32657)
- Sequence (P32657 whole entry, the tested form may be a part): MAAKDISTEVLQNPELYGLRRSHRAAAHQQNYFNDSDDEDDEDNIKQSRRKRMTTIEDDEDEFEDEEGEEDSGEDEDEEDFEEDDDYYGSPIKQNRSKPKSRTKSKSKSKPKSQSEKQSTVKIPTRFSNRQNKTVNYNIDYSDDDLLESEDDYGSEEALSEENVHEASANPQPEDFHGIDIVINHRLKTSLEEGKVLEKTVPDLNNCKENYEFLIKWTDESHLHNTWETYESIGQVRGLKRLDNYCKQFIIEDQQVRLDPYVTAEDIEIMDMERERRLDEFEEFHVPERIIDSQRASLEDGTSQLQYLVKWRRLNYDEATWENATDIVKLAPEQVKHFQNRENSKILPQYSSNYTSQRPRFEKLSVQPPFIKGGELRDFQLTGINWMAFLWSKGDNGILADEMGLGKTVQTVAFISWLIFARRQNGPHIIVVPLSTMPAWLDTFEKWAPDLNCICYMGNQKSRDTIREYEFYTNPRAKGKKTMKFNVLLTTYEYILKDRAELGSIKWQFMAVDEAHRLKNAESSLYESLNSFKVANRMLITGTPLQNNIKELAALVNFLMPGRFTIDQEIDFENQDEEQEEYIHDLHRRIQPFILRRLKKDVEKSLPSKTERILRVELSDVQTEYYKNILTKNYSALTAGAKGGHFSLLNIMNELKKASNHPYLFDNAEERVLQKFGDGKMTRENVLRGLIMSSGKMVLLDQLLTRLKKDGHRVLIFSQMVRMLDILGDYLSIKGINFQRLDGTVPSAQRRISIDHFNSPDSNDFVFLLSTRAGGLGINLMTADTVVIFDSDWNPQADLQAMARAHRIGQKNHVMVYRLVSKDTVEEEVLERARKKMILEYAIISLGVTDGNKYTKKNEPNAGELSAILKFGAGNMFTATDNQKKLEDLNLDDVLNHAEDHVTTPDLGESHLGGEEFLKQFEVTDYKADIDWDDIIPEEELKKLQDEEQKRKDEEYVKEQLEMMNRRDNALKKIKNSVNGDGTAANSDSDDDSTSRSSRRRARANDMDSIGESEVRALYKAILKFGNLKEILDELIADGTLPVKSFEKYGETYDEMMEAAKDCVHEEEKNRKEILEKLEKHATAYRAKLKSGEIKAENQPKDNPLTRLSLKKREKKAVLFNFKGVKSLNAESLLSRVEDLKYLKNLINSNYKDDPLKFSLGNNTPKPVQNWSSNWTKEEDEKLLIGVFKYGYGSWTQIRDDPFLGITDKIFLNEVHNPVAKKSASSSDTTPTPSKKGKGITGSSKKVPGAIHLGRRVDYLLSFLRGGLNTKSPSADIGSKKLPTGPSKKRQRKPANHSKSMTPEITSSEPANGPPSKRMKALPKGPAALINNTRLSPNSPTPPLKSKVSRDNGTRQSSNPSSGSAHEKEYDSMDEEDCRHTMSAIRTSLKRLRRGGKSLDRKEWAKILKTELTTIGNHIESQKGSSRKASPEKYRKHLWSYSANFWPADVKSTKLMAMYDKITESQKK
- ASSAY NOTES: ScCHD-1 Enzyme Inhibition Assay; note: in the data most compounds retested in dose-response had high values
- Format: functional
- Set-up: scale not given: direction of the effect not stated beside the values
- EXPERIMENTAL PARAMETERS: 30 µM
Percent Effect listing for selected molecules.
Output spec: scalar in %, unitless text.

Examples from the recorded data:
| MOLECULE | Percent Effect / % |
| --- | --- |
| CC(C)c1n[nH]c(C2CN(C(=O)C3=COCC3)CCO2)n1 (configuration not stated) | 10.5 |
| Cc1ccccc1CN1CCN(CC(=O)Nc2cccnc2)CC1 | -2.58 |
| COCc1cn([C@@H]2c3ccccc3C3(CCNCC3)[C@H]2O)nn1 | -5.28 |
| COCC1CN(Cc2ccc(C)o2)Cc2cn(C)nc21 (configuration not stated) | -7.5 |
| COc1ccc(CN2CCn3c(CNS(C)(=O)=O)nnc3C2)cc1 | 1 |

Supply recorded Percent Effect for CCc1nc(CN2CCCC(NCc3nnc(C4CC4)o3)C2)no1 (configuration not stated) here. -21.2

Supply recorded Percent Effect for O=C(COCc1ccccc1Cl)N1CCCC(n2cccn2)C1 (configuration not stated) here. -9.25

Supply recorded Percent Effect for "CCC1=N[C@@]2(CC[C@@H]3CN(Cc4ccccc4F)C[C@@H]32)C(=O)N1CC" here. -6.7

----------
- TGT: Ubiquitin-activating enzyme e1, putative (Leishmania donovani (strain BPK282A1)) (UniProt E9BSI1)
- Sequence (E9BSI1 as listed by the source): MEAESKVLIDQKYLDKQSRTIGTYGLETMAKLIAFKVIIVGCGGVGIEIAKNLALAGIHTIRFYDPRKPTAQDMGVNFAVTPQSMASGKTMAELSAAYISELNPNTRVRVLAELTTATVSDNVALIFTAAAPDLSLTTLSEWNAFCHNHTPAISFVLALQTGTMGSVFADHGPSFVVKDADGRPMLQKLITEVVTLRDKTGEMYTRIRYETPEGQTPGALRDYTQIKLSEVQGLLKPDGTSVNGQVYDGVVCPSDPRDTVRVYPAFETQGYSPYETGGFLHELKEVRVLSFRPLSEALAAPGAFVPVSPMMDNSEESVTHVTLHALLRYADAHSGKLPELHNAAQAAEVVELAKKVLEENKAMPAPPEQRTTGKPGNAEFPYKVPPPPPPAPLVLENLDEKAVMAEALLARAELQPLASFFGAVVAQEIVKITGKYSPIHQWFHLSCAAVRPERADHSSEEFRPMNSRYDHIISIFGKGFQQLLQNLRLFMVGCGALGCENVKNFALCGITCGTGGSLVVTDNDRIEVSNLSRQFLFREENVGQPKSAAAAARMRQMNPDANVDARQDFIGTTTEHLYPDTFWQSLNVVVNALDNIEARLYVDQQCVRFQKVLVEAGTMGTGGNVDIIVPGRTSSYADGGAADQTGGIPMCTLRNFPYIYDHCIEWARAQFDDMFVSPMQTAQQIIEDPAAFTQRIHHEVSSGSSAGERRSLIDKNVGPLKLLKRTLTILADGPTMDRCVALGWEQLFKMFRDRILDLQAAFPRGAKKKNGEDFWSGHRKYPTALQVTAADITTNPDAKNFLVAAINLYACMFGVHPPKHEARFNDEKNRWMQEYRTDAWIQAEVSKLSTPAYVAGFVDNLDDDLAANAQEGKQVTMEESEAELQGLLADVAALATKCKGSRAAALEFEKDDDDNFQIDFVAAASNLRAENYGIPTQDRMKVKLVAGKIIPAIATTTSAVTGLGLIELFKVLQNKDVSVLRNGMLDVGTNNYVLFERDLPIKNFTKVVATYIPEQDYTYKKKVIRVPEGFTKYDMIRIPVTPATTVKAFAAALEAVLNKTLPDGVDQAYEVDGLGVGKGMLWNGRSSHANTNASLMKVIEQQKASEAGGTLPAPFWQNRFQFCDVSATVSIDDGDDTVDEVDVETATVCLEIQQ
- ASSAY NOTES: Leishmania donovani Ubiquitin Activating Enzyme (LdE1)
- Assay type: functional
- Design: scale not given: direction of the effect not stated beside the values
- EXPERIMENTAL PARAMETERS: 30 µM
Results with a measured potency or affinity are listed apart.
PARAMETER MEASURED: Percent Effect (%)
Output spec: scalar in %, unitless text.

Examples from the recorded data:
| MOLECULE | UNITS TEXT | Percent Effect |
| --- | --- | --- |
| CCn1nnc2cc(C(=O)N3CCCC3Cn3cc(C)cn3)ccc21 (configuration not stated) | % | -5.06 |
| Cc1noc2ncc(C(=O)NCC3CCOC3)cc12 (configuration not stated) | % | 0 |
| Cc1cc(CNC(=O)N2CCN(c3nc(C)c(C)s3)CC2)no1 | % | 18.9 |
| Cc1ncc(CNC(=O)Nc2cc(C(F)(F)F)c[nH]c2=O)s1 | % | -1.39 |
| COc1cccc(CN(C)S(=O)(=O)N2CCOCC2)c1 | % | 13.2 |
| Cn1nc(C2CCCN(C(=O)Cc3ccsc3)C2)c2nccnc21 (configuration not stated) | % | 9.46 |
| CN1CCN(Cc2ccccc2CNC(=O)c2ccc(Br)cc2F)CC1 | % | 5.41 |
| Cc1ccc(C)n1-c1ccc(C(=O)NCCNc2ncccn2)cc1 | % | 7.89 |
| Cc1nc(C)n(CC2CCCN(CCNC(=O)OC(C)(C)C)C2)n1 (configuration not stated) | % | 2.6 |
| CSc1cc2c(cc1NC(=O)NCC(C)(C)C(N)=O)OCCO2 | % | 0 |

Supply recorded Percent Effect for "CCOc1nc2cccnc2n(CC(=O)NCCOC)c1=O" here. 23.4

Supply recorded Percent Effect for "CC(C)Nc1ncnc2c1CCN(C(=O)Cc1ccccn1)CC2" here. 1.33

----------
Percent Effect listing for selected compounds.
- Tested on: Trypanosoma cruzi
- ASSAY NOTES: Trypanosoma cruzi phosphomannomutase and mannose-1-phosphate guanylyltransferase assay
- Assay type: functional
- Design: scale not given: direction of the effect not stated beside the values
- EXPERIMENTAL PARAMETERS: 10 µM
Output spec: scalar in %, unitless text.

| COMPOUND | UNITS TEXT | Percent Effect |
| --- | --- | --- |
| O=C(CCc1cccs1)N1CCCCC1Cn1cccn1 (centres undefined) | % | 5.19 |

Supply recorded Percent Effect for "CCOc1ccc(Cl)c(C(=O)N2CCN(c3cnccn3)CC2)n1" here. 8.43

Supply recorded Percent Effect for N#Cc1ccc(CNCC(C(=O)N2CCOCC2)c2ccccc2)cc1 (centres undefined) here. 2.06

Supply recorded Percent Effect for Cc1nccn1CCC1CCCCN1Cc1ccncc1 (centres undefined) here. -2.63

----------
- TGT: Tyrosyl-tRNA synthetase, putative (Trypanosoma cruzi (strain CL Brener))
- Sequence (whole entry): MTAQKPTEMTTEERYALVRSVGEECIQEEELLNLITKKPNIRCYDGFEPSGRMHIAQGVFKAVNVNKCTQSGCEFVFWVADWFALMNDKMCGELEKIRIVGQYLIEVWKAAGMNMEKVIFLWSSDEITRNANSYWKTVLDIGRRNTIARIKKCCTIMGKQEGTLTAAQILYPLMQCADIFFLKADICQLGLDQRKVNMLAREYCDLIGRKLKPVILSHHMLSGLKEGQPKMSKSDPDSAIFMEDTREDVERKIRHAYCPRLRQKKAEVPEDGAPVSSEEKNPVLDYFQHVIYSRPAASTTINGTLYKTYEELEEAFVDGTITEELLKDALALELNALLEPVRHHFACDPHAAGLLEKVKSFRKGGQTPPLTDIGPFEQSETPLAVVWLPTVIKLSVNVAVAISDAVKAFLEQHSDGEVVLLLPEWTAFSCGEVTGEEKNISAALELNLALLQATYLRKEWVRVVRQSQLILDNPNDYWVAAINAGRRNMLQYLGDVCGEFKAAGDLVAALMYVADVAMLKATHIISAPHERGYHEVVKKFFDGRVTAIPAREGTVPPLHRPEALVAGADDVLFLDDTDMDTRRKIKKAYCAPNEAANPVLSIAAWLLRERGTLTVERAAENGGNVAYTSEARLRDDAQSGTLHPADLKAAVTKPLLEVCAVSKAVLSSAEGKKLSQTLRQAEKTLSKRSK
- ASSAY NOTES: Trypanosoma cruzi tyrosyl tRNA synthetase (TcYRS) _High Tyrosine SOP; note: in the data most compounds retested in dose-response had high values
- Type: functional
- Set-up: scale not given: direction of the effect not stated beside the values
- EXPERIMENTAL PARAMETERS: 30 µM
Percent Effect listing for selected molecules.

Examples from the recorded data:
| MOLECULE | EXPERIMENTAL RESULT |
| --- | --- |
| c1ccc(CCCN2CC(n3cccn3)C2)cc1 | 7.92% |
| CCc1n[nH]c(C2CN(Cc3nccn3CC)CCO2)n1 (stereo not given) | 12.4% |
| CC(C)N(C)Cc1nnc2n1CCN(Cc1ccncc1)CC2 | -2.08% |
| CCc1cnc(CNc2ccc(C(=O)N3CCCC(C)C3)cc2C)o1 (stereo not given) | -0.971% |

Supply recorded Percent Effect for "O=C(N[C@@H]1CCNC[C@H]1O)c1ccc(F)c(Cl)c1" here. 3.7%
